experiment: Volume of distribution at steady state in dog
Assay type: ADME, Canis lupus familiaris
conditions: in vivo, read-out: Vdss
parameter: Vd (L/kg)
The figure you give is taken to be in L/kg; do not add the unit.

Recorded Vd, per entry:
compound="COc1nnc2ccc(N3CCC(c4ccc(OCCN5CCN(C)C(=O)[C@H]5C)cc4)CC3)nn12 [AZD-5153]" recorded_number=0.4
compound=COc1nnc2ccc(N3CCC(c4ccc(N5CC(CN6CCN(C)C(=O)[C@H]6C)C5)cc4)CC3)nn12 recorded_number=0.7
compound=COc1nnc2ccc(N3CCC(c4ccc(OCCN5[C@H](C)CN(C(C)=O)C[C@@H]5C)cc4)CC3)nn12 recorded_number=0.6

Lab note: next compound to report on.
Exam item: Please give the measured Vd for this compound: COc1nnc2ccc(N3CCC(c4ccc(CCN5CCN(C)C(=O)[C@H]5C)cc4)CC3)nn12
Marked response: 0.9
